Test system: Streptococcus pneumoniae
experimental details: In vitro antibacterial activity against Streptococcus pneumoniae strain 9585
Type: functional
Provide the recorded MIC for the entries that follow.
One number for each entry, in µg/mL.

CO/N=C(/C(=O)NC1C(=O)N2C(C(=O)O)=C(C)/C(=C/C(=O)OC)SC12)c1csc(N)n1.O=C(O)C(F)(F)F (stereo not drawn): 0.016

Provide the reported MIC of each entry below, same order.
1. COC(=O)/C=C1\SC2C(NC(=O)C(N)c3ccccc3)C(=O)N2C(C(=O)O)=C1C.O=C(O)C(F)(F)F (stereo not drawn)
2. COC(=O)/C=C1\SC2C(NC(=O)Cc3cccs3)C(=O)N2C(C(=O)O)=C1COC(C)=O (stereo not drawn)

Found:
1: 0.13; 2: 0.13
